System: Staphylococcus aureus MW2 delta-mecA (mecA-)
test: IC50 (growth, competition assay)
testSettings: fluorescent label: DsRed; cefoxitin: subinhibitory
pIC50: −log10 of the molar value.
measurementKind: pIC50

INSERT INTO results (molecule, testedsystem, result) VALUES
  ('Cc1cc(NC2CCCCC2)nc(-n2nc(C)cc2C)n1 [CyPPA]', 'Staphylococcus aureus MW2 delta-mecA (mecA-)', 4.73),
  ('CC1(C)S[C@@H]2[C@H](NC(=O)C(C(=O)O)c3ccccc3)C(=O)N2[C@H]1C(=O)O (stereo partly specified) [Carbenicillin disodium]', 'Staphylococcus aureus MW2 delta-mecA (mecA-)', '> 5.01'),
  ('O=C(O)c1nn(Cc2ccc(Cl)cc2Cl)c2ccccc12 [Lonidamine]', 'Staphylococcus aureus MW2 delta-mecA (mecA-)', 4.65),
  ('CCC[C@H](NC(=O)/C(C#N)=C/c1cccc(Br)n1)c1ccccc1 [WP1130]', 'Staphylococcus aureus MW2 delta-mecA (mecA-)', 5.64),
  ('CCCc1c(-c2ccc(O)cc2)nn(-c2ccc(O)cc2)c1-c1ccc(O)cc1 [1,3,5-tris(4-hydroxyphenyl)-4-propyl-1H-pyrazole]', 'Staphylococcus aureus MW2 delta-mecA (mecA-)', '> 5.01');

Qu. What does the data say about its pIC50? Entry: `O=C1NC(=O)/C(=C/c2ccc(-c3ccc(F)cc3O)o2)S1`
Ans. > 5.01

Qu. What does the data say about its pIC50? Entry: CO/N=C(\C(=O)N[C@@H]1C(=O)N2C(C(=O)OCOC(=O)C(C)(C)C)=C(/C=C\c3scnc3C)CS[C@H]12)c1csc(N)n1 [Cefditoren pivoxil]
Ans. > 6.30

Qu. What does the data say about its pIC50? Entry: CC(C)=CCCC1(C)C=Cc2c(O)c3c(c(CC=C(C)C)c2O1)OC12C(=CCCC1C(C)(C)O[C@@]2(C/C=C(\C)C(=O)O)C(=O)O)C3=O (stereo partly specified) [GARCINOLIC ACID]
Ans. > 5.01

Qu. What does the data say about its pIC50? Entry: CC1CC(OC(=O)C(O)c2ccccc2)CC(C)(C)C1 (stereo unspecified) [CYCLOSPASMOL]
Ans. 4.82

Qu. What does the data say about its pIC50? Entry: O=c1[nH]c(=O)n([C@H]2C[C@H](O)[C@@H](CO)O2)cc1C(F)(F)F [VIROPTIC]
Ans. > 5.01

Qu. What does the data say about its pIC50? Entry: Brc1c(Br)c(Br)c2[nH]cnc2c1Br [TBBz]
Ans. 4.93

Qu. What does the data say about its pIC50? Entry: O=c1[nH]nc(Sc2ncc([N+](=O)[O-])s2)n1-c1ccc2c(c1)OCCO2 [BI 78D3]
Ans. > 5.01

Qu. What does the data say about its pIC50? Entry: CO[C@@H]1[C@@H](OC(N)=O)[C@@H](O)[C@H](Oc2ccc3c(O)c(NC(=O)c4ccc(O)c(CC=C(C)C)c4)c(=O)oc3c2C)OC1(C)C [ALBAMYCIN]
Ans. > 5.01

====

System: Staphylococcus aureus MW2 (mecA+)
test: IC50 (growth, competition assay)
testSettings: fluorescent label: DsRed; cefoxitin: subinhibitory
Listed next: entries and their corresponding IC50.
Just the number in µM, nothing appended.

INSERT INTO assay_data (compound, measurementkind, measurednumber) VALUES
  ('O=c1c(O)c(-c2ccc(O)c(O)c2)oc2cc(O)cc(O)c12 [Quercetin dihydrate]', 'IC50', 56.9),
  ('O=C(/C=C/c1ccccc1)c1ccc(O)cc1O [2'',4''-DIHYDROXYCHALCONE]', 'IC50', 91.7);

Now, please, on to the next compound.
Qu. What does the data say about its IC50? Entry: `CC(=O)[C@H]1CC[C@H]2[C@@H]3CC=C4C[C@@H](OC(=O)CCC(=O)O)CC[C@]4(C)[C@H]3CC[C@]12C`
Ans. 18.1

====

System: Staphylococcus aureus MW2 (mecA+)
test: IC50 (growth, competition assay)
testSettings: fluorescent label: DsRed; cefoxitin: subinhibitory
measurementKind: IC50 (µM)
Just the number in µM, nothing appended.

# count of solved cases: 4
INSERT INTO results (compound, measurementkind, unitstring, measurednumber) VALUES
  ('C[C@@H]1CN(c2c(F)c(N)c3c(=O)c(C(=O)O)cn(C4CC4)c3c2F)C[C@H](C)N1 [Sparfloxacin]', 'IC50', 'µM', 0.78),
  ('Cc1cc(Nc2nc(N[C@@H](C)c3ccc(F)cc3)c(C#N)cc2F)n[nH]1 [AZ 960]', 'IC50', 'µM', 110),
  ('CC1(C)C=Cc2c(c3c(c4c(=O)c(-c5ccc(O)c(O)c5)coc24)OC(C)(C)CC3)O1 [ISOPOMIFERIN]', 'IC50', 'µM', 27),
  ('O=c1c(O)c(-c2ccc(O)c(O)c2)oc2cc(O)cc(O)c12 [Quercetin dihydrate (Sophoretin)]', 'IC50', 'µM', 58.2);

Now, please, on to the next compound.
Qu. # query: IC50 | item Cc1cc(SCc2sc(-c3ccc(C(F)(F)F)c(F)c3)nc2C)ccc1OCC(=O)O [GW0742] | system: Staphylococcus aureus MW2 (mecA+)
Ans. 11.6

====

System: Staphylococcus aureus MW2 delta-mecA (mecA-)
test: IC50 (growth, competition assay)
testSettings: fluorescent label: DsRed; cefoxitin: subinhibitory
Counter-ions that a name gives are not always drawn.
measurementKind: IC50

# count of solved cases: 2
INSERT INTO measurements (compound, measurementkind, result) VALUES
  ('O=C(O)C1=C(CSc2nnnn2CS(=O)(=O)O)CS[C@@H]2[C@H](NC(=O)[C@H](O)c3ccccc3)C(=O)N12', 'IC50', '< 9.85 µM'),
  ('CCCCCCCCCCCCCCCC(=O)O[C@@H]1[C@@H](O)[C@@H](O)[C@@H]([C@H](NC(=O)[C@@H]2C[C@@H](CCC)CN2C)[C@H](C)Cl)O[C@@H]1SC [Clindamycin palmitate HCl]', 'IC50', '< 9.85 µM');

Qu. What does the data say about its IC50? Entry: `Cc1cc(SCc2sc(-c3ccc(C(F)(F)F)c(F)c3)nc2C)ccc1OCC(=O)O`
Ans. < 9.85 µM

Qu. What does the data say about its IC50? Entry: CN[C@@H]1C[C@@H](c2ccc(Cl)c(Cl)c2)c2ccccc21 [Indatraline hydrochloride]
Ans. 36.2 µM

Qu. What does the data say about its IC50? Entry: `CC(C)(Sc1ccc(CCN(CCCCC2CCCCC2)C(=O)NC2CCCCC2)cc1)C(=O)O`
Ans. < 9.85 µM

Qu. What does the data say about its IC50? Entry: CO/N=C(\C(=O)N[C@@H]1C(=O)N2C(C(=O)O)=C(COC(C)=O)CS[C@H]12)c1csc(N)n1 [CLAFORAN]
Ans. < 9.85 µM

Qu. What does the data say about its IC50? Entry: `CC1(C)C=Cc2c(c3c(c4c(=O)c(-c5ccc(O)c(O)c5)coc24)OC(C)(C)CC3)O1`
Ans. 11.8 µM

Qu. What does the data say about its IC50? Entry: `COC1=CC(=O)C(O)=C/C1=C\C=C\c1ccccc1`
Ans. < 9.85 µM

Qu. What does the data say about its IC50? Entry: CO/N=C(\C(=O)N[C@@H]1C(=O)N2C(C(=O)O)=C(CSc3nc(=O)c(O)nn3C)CS[C@H]12)c1csc(N)n1 [ROCEPHIN]
Ans. < 9.85 µM

Qu. What does the data say about its IC50? Entry: `CC1=CC(=O)c2c(O)cccc2C1=O`
Ans. < 9.85 µM

Qu. What does the data say about its IC50? Entry: `NC[C@H]1O[C@H](O[C@H]2[C@H](O)[C@@H](O[C@H]3O[C@H](CO)[C@@H](O)[C@H](N)[C@H]3O)[C@H](N)C[C@@H]2N)[C@H](N)C[C@@H]1O`
Ans. 32 µM

====

Listed next: entries and their corresponding IC50.
Tested on: Staphylococcus aureus MW2 (mecA+)
test: IC50 (growth, competition assay)
testSettings: fluorescent label: DsRed; cefoxitin: subinhibitory
Where a name gives a salt, the structure may show the parent alone.

Qu. What does the data say about its IC50? Entry: CC(C)(Oc1ccc(C2CC2(Cl)Cl)cc1)C(=O)O (centres undefined) [Ciprofibrate]
Ans. 93.1 µM

Qu. What does the data say about its IC50? Entry: `CCc1cc(-c2n[nH]c(C)c2-c2ccc3c(c2)OCCO3)c(O)cc1O`
Ans. 82.7 µM

Qu. What does the data say about its IC50? Entry: CCOC(=O)[C@H](CCc1ccccc1)N[C@@H](C)C(=O)N1Cc2ccccc2C[C@H]1C(=O)O [ACCUPRIL]
Ans. > 150 µM

Qu. What does the data say about its IC50? Entry: N=C(NCCCCCCNC(=N)NC(=N)Nc1ccc(Cl)cc1)NC(=N)Nc1ccc(Cl)cc1 [LISIUM]
Ans. < 9.85 µM

Qu. What does the data say about its IC50? Entry: C[C@H]1c2cccc(O)c2C(=O)C2=C(O)[C@]3(O)C(=O)C(C(N)=O)=C(O)[C@@H](N(C)C)[C@@H]3[C@@H](O)[C@@H]21 [Doxycycline hydrochloride]
Ans. < 9.85 µM

Qu. What does the data say about its IC50? Entry: CCCCCCCCCCCCCCCC(=O)O[C@@H]1[C@@H](O)[C@@H](O)[C@@H]([C@H](NC(=O)[C@@H]2C[C@@H](CCC)CN2C)[C@H](C)Cl)O[C@@H]1SC [Clindamycin palmitate HCl]
Ans. < 9.85 µM

Qu. What does the data say about its IC50? Entry: O=C1Nc2ccc(I)cc2/C1=C/c1cc(Br)c(O)c(Br)c1 [GW5074]
Ans. < 9.85 µM

Qu. What does the data say about its IC50? Entry: CC(C)(C)CC(C)(C)c1ccc(OCCOCC[N+](C)(C)Cc2ccccc2)cc1 [PHEMERIDE]
Ans. < 9.85 µM

Qu. What does the data say about its IC50? Entry: `C[C@@H](Oc1cc(-c2cnn(C3CCNCC3)c2)cnc1N)c1c(Cl)ccc(F)c1Cl`
Ans. 101 µM

Qu. What does the data say about its IC50? Entry: CC(C)[C@H]1c2ccc(F)cc2CC[C@@]1(CCN(C)CCCc1nc2ccccc2[nH]1)OC(=O)C1CC1 [NNC 55-0396]
Ans. 14.8 µM

Qu. What does the data say about its IC50? Entry: CC[C@@H]1C(=O)N(C)c2cnc(Nc3ccc(C(=O)NC4CCN(C)CC4)cc3OC)nc2N1C1CCCC1 [BI 2536]
Ans. 106 µM

Qu. What does the data say about its IC50? Entry: C=C[C@]1(C)C[C@@H](OC(=O)CS[C@@H]2C[C@H]3CC[C@@H](C2)N3C)[C@]2(C)[C@H](C)CC[C@]3(CCC(=O)[C@H]32)[C@@H](C)[C@@H]1O [Retapamulin]
Ans. < 9.85 µM

Qu. What does the data say about its IC50? Entry: NC(=O)c1cc[n+](CC2=C(C(=O)[O-])N3C(=O)[C@@H](NC(=O)Cc4cccs4)[C@H]3SC2)cc1 [CEFALONIUM]
Ans. 17.5 µM

Qu. What does the data say about its IC50? Entry: CN1CCN(c2c(F)cc3c(=O)c(C(=O)O)cn4c3c2SCC4)CC1 [TEBRAXIN]
Ans. < 9.85 µM

Qu. What does the data say about its IC50? Entry: CN1C[C@@H]2C[C@H]1CN2c1cc2c(cc1F)c(=O)c(C(=O)O)cn2C1CC1 [Danofloxacin Mesylate]
Ans. < 9.85 µM

Data origin, for the record: the supplement of paper PMC7695840
